# System: viable cells in culture
# assay notes: Cell viability assay (CellTiter-Glo Luminescent Cell Viability Assay, ATP quantitation, percent of vehicle control)
Label class 1 when Average Cell Viability after 24 Hours (% DMSO) is strictly below 70 % DMSO; at or above that, label class 0.

Here's an entry: COc1cc(OC)cc(C(=O)Nc2nc(-c3ccccn3)cs2)c1 . Is its Average Cell Viability after 24 Hours (% DMSO) below 70 % DMSO?
class 0

Here's an entry: NCCC(=O)N[C@@H](Cc1cnc[nH]1)C(=O)O . Is its Average Cell Viability after 24 Hours (% DMSO) below 70 % DMSO?
class 0

Here's an entry: Oc1c2c(nn1-c1nc3ccccc3[nH]1)CCCC2 . Is its Average Cell Viability after 24 Hours (% DMSO) below 70 % DMSO?
class 0

Here's an entry: COc1ccc(C(NC(=O)CC(C)C)c2ccc3cccnc3c2O)cc1OC (stereo not shown) . Is its Average Cell Viability after 24 Hours (% DMSO) below 70 % DMSO?
class 1

Here's an entry: Cc1ccc(-c2cc(O)n(-c3nc4ccccc4[nH]3)n2)cc1 . Is its Average Cell Viability after 24 Hours (% DMSO) below 70 % DMSO?
class 1

Here's an entry: O=C(CCN1C(=O)c2cccc3cccc(c23)C1=O)Nc1ccon1 . Is its Average Cell Viability after 24 Hours (% DMSO) below 70 % DMSO?
class 0

Here's an entry: O=C(CCc1ccccc1)NC(c1ccc(Cl)cc1)c1ccc2cccnc2c1O (stereo not shown) . Is its Average Cell Viability after 24 Hours (% DMSO) below 70 % DMSO?
class 0

Here's an entry: CCCc1c(C)[nH]c2c(-c3ccc(Cl)cc3)c(C)nn2c1=O . Is its Average Cell Viability after 24 Hours (% DMSO) below 70 % DMSO?
class 0

Here's an entry: CC(=O)Oc1ccc2c(=O)c(Oc3ccc4ccccc4c3)c(C(F)(F)F)oc2c1 . Is its Average Cell Viability after 24 Hours (% DMSO) below 70 % DMSO?
class 1

Here's an entry: Oc1c(CN2CCN(c3cccc(Cl)c3)CC2)cc(Br)c2cccnc12 . Is its Average Cell Viability after 24 Hours (% DMSO) below 70 % DMSO?
class 1

Here's an entry: Cc1ccc(NC(=O)c2cc([N+](=O)[O-])ccc2O)cc1 . Is its Average Cell Viability after 24 Hours (% DMSO) below 70 % DMSO?
class 0

Here's an entry: Oc1c(Cl)cc(Cl)c2cccnc12 . Is its Average Cell Viability after 24 Hours (% DMSO) below 70 % DMSO?
class 1

Here's an entry: Oc1c(CN2CCN(Cc3ccc4cccnc4c3O)CC2)ccc2cccnc12 . Is its Average Cell Viability after 24 Hours (% DMSO) below 70 % DMSO?
class 1

Here's an entry: COc1ccc(C(=O)NC(=S)Nc2ccc(C(=O)O)cc2)cc1 . Is its Average Cell Viability after 24 Hours (% DMSO) below 70 % DMSO?
class 0

Here's an entry: CC(C)C(=O)NC(c1ccco1)c1ccc2cccnc2c1O (stereo not shown) . Is its Average Cell Viability after 24 Hours (% DMSO) below 70 % DMSO?
class 0

Here's an entry: O=C(NCCCn1ccnc1)c1cc(-c2cccs2)on1 . Is its Average Cell Viability after 24 Hours (% DMSO) below 70 % DMSO?
class 0
